# assayed_target: UniProtKB P46059
# Sequence (P46059 whole entry): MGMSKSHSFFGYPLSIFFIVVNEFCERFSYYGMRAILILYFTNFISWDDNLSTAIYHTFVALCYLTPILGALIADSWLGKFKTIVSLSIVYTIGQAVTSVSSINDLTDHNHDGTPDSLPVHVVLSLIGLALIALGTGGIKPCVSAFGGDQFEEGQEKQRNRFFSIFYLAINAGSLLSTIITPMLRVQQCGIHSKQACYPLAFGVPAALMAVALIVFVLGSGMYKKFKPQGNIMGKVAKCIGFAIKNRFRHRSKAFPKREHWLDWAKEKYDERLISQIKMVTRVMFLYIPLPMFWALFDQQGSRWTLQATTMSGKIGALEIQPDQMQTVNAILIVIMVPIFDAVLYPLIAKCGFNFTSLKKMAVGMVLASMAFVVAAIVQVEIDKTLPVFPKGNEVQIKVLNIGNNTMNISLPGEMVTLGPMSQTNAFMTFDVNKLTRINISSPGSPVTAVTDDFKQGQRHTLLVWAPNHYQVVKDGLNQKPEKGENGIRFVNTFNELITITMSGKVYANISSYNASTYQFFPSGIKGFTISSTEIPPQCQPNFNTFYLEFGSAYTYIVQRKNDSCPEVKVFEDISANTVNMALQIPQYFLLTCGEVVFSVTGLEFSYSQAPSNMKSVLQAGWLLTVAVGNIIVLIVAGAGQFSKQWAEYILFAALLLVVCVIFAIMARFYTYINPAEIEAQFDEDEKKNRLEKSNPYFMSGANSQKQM
# method: inhibition of radiolabeled Gly-Sar uptake in transfected CHO cells
# Type: cell-based
attribute_measured: IC50

Req: Please look up its IC50: C[C@@H](Cc1ccccc1)NC(=O)[C@@H](N)CCCCN [lisdexamfetamine dimesylate]
Resp: ~4 mM
